- Tested on: 786-O (renal cell carcinoma) cells
- methodNotes: Cell viability (CellTiter Glo) assay, inhibition of 786-O cell proliferation
- Format: cell-based
- conditions: Homo sapiens, 786-0; 786-O cells, 72 hours, CellTiter Glo; read-out: IC50, inhibition of 786-O cell proliferation
endpointName: IC50

Previously resolved entries follow.
structureassmiles=CC(C)Oc1cnc(COC(=N)N(CC(F)(F)F)C(C)C)nc1Nc1ccc(Oc2ccccc2)cc1 systemtested="786-O (renal cell carcinoma) cells" endpointresult="100 to 500 nM"
structureassmiles=N=C(OCc1nc(N)c2c(n1)N(c1cnc(C3CCOCC3)nc1)C(=O)C21CCCC1)N1CCC[C@@H]1C(F)(F)F systemtested="786-O (renal cell carcinoma) cells" endpointresult="100 to 500 nM"
structureassmiles=CC(C)N(CC(F)(F)F)C(=N)OCc1nc(N)c2c(n1)N(c1ccc(N3C[C@@H](C)O[C@@H](C)C3)nc1)C(=O)C2(C)C systemtested="786-O (renal cell carcinoma) cells" endpointresult="100 to 500 nM"

Now consider the entry below.
[Q] Give the measured IC50 of `N=C(NC1CCCCC1)OCc1nc(N)nc(Nc2ccc(Oc3ccccc3)cc2)n1` .
[A] < 100 nM

----------
- Tested on: 786-O (renal cell carcinoma) cells
- methodNotes: Cell viability (CellTiter Glo) assay, inhibition of 786-O cell proliferation
- Assay type: cell-based
- conditions: Homo sapiens, 786-0; 786-O cells, 72 hours, CellTiter Glo; read-out: IC50, inhibition of 786-O cell proliferation
endpointName: IC50

Previously resolved entries follow.
compound="N=C(NC12CC3CC(CC(C3)C1)C2)OCc1nc(N)nc(Nc2ccc(Oc3ccccc3)cc2)n1 [Compound F20]" endpointname=IC50 endpointresult="0.1 to 0.5 µM"
compound="CN(CC(F)(F)F)C(=N)OCc1ncc2c(n1)N(c1ccc(Oc3ccccc3)cc1)CC2(C)C [Compound E136]" endpointname=IC50 endpointresult="< 0.1 µM"
compound="CC(C)N(CC(F)(F)F)C(=N)OCc1nc(N)c2c(n1)N(c1ccc(OC3CCCCC3)nc1)C(=O)C2(C)C [Compound E167]" endpointname=IC50 endpointresult="< 0.1 µM"

Now consider the entry below.
[Q] Give the measured IC50 of C[C@@H]1CN(c2ccc(N3C(=O)C4(CCC4)c4c(N)nc(COC(=N)N5CCC[C@@H]5C(F)(F)F)nc43)cn2)C[C@H](C)O1 [Compound E33] .
[A] < 0.1 µM

----------
- Tested on: 786-O (renal cell carcinoma) cells
- methodNotes: Cell viability (CellTiter Glo) assay, inhibition of 786-O cell proliferation
- Assay type: cell-based
- conditions: Homo sapiens, 786-0; 786-O cells, 72 hours, CellTiter Glo; read-out: IC50, inhibition of 786-O cell proliferation
IC50 listing for selected molecules.

structureassmiles=CNc1nc(COC(=N)N2CCC[C@H]2C(F)(F)F)nc2c1C(C)(C)C(=O)N2c1ccc(N2CCOCC2)cc1 systemtested="786-O (renal cell carcinoma) cells" endpointresult="< 100 nM"
structureassmiles=CC1(C)CN(c2ccc(Oc3ccccc3)cc2)c2nc(COC(=N)N3CCCC34CCOCC4)ncc21 systemtested="786-O (renal cell carcinoma) cells" endpointresult="500 to 5000 nM"
structureassmiles=Cn1c(OCc2nc(N)nc(Nc3ccc(Oc4ccccc4)cc3)n2)nc(Br)c1Br systemtested="786-O (renal cell carcinoma) cells" endpointresult="> 5000 nM"

[Q] Give the measured IC50 of `CC(C)N(CC(F)(F)F)C(=N)OCc1ncc2c(n1)N(c1ccc(N3CCOCC3)nc1)CC21CC1` .
[A] 100 to 500 nM

All values here come from patent US20250304571A1.
